Measured values drawn from patent US20110064740A1 for this set.

Here, each record is paired with measured Kd data.
- Assay System: T1, human Aβ peptide (1-40) biotinylated at the C terminus (human, UniProt P05067 672-711, biotinylated at the C-terminus)
- T1 construct: domain: β-amyloid peptide (1-40); Numbers 1-40 count on the β-amyloid peptide, not on APP; also called beta-amyloid 1-40 peptide (biotinylated at the C-terminus); streptavidin-captured beta-amyloid (1-40)
- T1 sequence (P05067 672-711 limits assumed): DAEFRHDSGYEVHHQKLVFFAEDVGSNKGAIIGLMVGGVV
- Test: SPR Biacore 3000, Method A(i): C-terminally biotinylated β-amyloid 1-40 on streptavidin chip, antibody as analyte; Run 2
Dear colleague, please return just the value in nM, with no unit written.

For Chimeric 2E7 antibody (2E7c) (antibody, human IgG1, V domains shown, Parent murine V regions on human IgG1 (L235A, G237A) and human C kappa; also called 2E7c Chimera; not shown: human IgG1 heavy chain constant region, Fc mutated (L235A, G237A); human C kappa constant region) VH: EVKLVESGGGLVQPGGSLKLSCAVSGFTFSDNGMAWVRQAPRKGPEWIAFISNLAYSIDYADTVTGRFTISRDNAKNTLYLEMSSLRSEDTAMYYCVSGTWFAYWGQGTLVTVSA VL: DVVLTQTPLSLPVSLGDQASISCRVSQSLLHSNGYTYLHWYLQKPGQSPKLLIYKVSNRFSGVPDRFSGSGSGTDFTLKISRVEAEDLGVYFCSQTRHVPYTFGGGTKLEIK the binder record lists Kd as 0.0435

Consider Humanised 2E7 variant H1L1 (antibody, human IgG1, kappa, V domains shown, Human IgG1 with L235A and G237A, human kappa; also called L1+H1) VH: EVQLVESGGGLVQPGGSLRLSCAASGFTFSDNGMAWVRQAPGKGLEWVSFISNLAYSIDYADTVTGRFTISRDNAKNSLYLQMNSLRAEDTAVYYCVSGTWFAYWGQGTLVTVSS VL: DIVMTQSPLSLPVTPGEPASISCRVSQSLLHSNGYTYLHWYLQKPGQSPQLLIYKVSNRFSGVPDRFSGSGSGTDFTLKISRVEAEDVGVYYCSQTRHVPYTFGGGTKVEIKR . Its measured Kd is 0.0922

Entry Humanised 2E7 variant H3L1 (antibody, human IgG1, kappa, V domains shown, Human IgG1 with L235A and G237A, human kappa; also called L1+H3) VH: EVQLVESGGGLVQPGGSLRLSCAASGFTFSDNGMAWVRQAPGKGLEWISFISNLAYSIDYADTVTGRFTISRDNAKNSLYLQMNSLRAEDTAVYYCVSGTWFAYWGQGTLVTVSS VL: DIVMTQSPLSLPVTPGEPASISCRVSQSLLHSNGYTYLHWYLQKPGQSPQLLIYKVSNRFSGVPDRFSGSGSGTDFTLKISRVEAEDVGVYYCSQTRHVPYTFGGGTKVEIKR ; Kd = 0.0572

Kd measured on Mouse monoclonal antibody 2E7 (antibody, mouse IgG2a, V domains shown, Murine IgG2a heavy chain, murine kappa light chain; also called 2E7 MAb; parental mouse 2E7 MAb) VH: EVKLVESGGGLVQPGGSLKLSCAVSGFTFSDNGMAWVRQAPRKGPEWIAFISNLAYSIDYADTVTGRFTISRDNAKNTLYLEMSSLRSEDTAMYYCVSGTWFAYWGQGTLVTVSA VL: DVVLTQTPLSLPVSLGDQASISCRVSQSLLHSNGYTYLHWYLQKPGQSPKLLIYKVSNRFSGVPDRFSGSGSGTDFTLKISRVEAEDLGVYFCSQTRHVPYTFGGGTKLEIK = 0.0338
